B1: library; a variant is named by its letters at N, in order (parent)
chain: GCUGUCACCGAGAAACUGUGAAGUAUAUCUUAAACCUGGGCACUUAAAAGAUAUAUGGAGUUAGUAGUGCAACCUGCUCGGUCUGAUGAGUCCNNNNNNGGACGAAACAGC

Variants of: B1
test_summary: normalized RNA/DNA level without ligand (relative to sTRSVctl = 100) (log10 (% of sTRSVctl)); HEK293T; ligand: cyclic di-GMP (c-di-GMP-II aptamer); higher = less ribozyme self-cleavage, higher mRNA level
condition_set: reporter: mCherry (pCS4076), ligand present: no
test_readout: normalized RNA/DNA level without ligand (log10)
Quick one: just the number, no unit, thanks!

Query string: I have this variant here, GCUGUCACCGAGAAACUGUGAAGUAUAUCUUAAACCUGGGCACUUAAAAGAUAUAUGGAGUUAGUAGUGCAACCUGCUCGGUCUGAUGAGUCCGUUAACGGACGAAACAGC [GUUAAC] , and I need its recorded normalized RNA/DNA level without ligand (log10).
Result string: 1.67

Query string: Can you look up the measured normalized RNA/DNA level without ligand (log10) of GCUGUCACCGAGAAACUGUGAAGUAUAUCUUAAACCUGGGCACUUAAAAGAUAUAUGGAGUUAGUAGUGCAACCUGCUCGGUCUGAUGAGUCCCAGUAGGGACGAAACAGC [CAGUAG] for me?
Result string: 1.72

Query string: For the variant shown here, GCUGUCACCGAGAAACUGUGAAGUAUAUCUUAAACCUGGGCACUUAAAAGAUAUAUGGAGUUAGUAGUGCAACCUGCUCGGUCUGAUGAGUCCGGCUGCGGACGAAACAGC [GGCUGC] , give the reported normalized RNA/DNA level without ligand (log10).
Result string: 1.7

Query string: State the recorded normalized RNA/DNA level without ligand (log10) for this entry: GCUGUCACCGAGAAACUGUGAAGUAUAUCUUAAACCUGGGCACUUAAAAGAUAUAUGGAGUUAGUAGUGCAACCUGCUCGGUCUGAUGAGUCCACAUGCGGACGAAACAGC [ACAUGC]
Result string: 1.59

Query string: Look at this variant and give its reported normalized RNA/DNA level without ligand (log10). GCUGUCACCGAGAAACUGUGAAGUAUAUCUUAAACCUGGGCACUUAAAAGAUAUAUGGAGUUAGUAGUGCAACCUGCUCGGUCUGAUGAGUCCGCUGAAGGACGAAACAGC [GCUGAA]
Result string: 1.45

Query string: Reported normalized RNA/DNA level without ligand (log10), variant GCUGUCACCGAGAAACUGUGAAGUAUAUCUUAAACCUGGGCACUUAAAAGAUAUAUGGAGUUAGUAGUGCAACCUGCUCGGUCUGAUGAGUCCCCCUUAGGACGAAACAGC [CCCUUA] : ____
Result string: 1.47

Query string: Report normalized RNA/DNA level without ligand (log10) for GCUGUCACCGAGAAACUGUGAAGUAUAUCUUAAACCUGGGCACUUAAAAGAUAUAUGGAGUUAGUAGUGCAACCUGCUCGGUCUGAUGAGUCCAAAUCCGGACGAAACAGC [AAAUCC] please.
Result string: 1.71

Query string: Consider the variant GCUGUCACCGAGAAACUGUGAAGUAUAUCUUAAACCUGGGCACUUAAAAGAUAUAUGGAGUUAGUAGUGCAACCUGCUCGGUCUGAUGAGUCCAAGCCUGGACGAAACAGC [AAGCCU] and give its measured normalized RNA/DNA level without ligand (log10).
Result string: 1.71

Query string: // returns reported normalized RNA/DNA level without ligand (log10) for input GCUGUCACCGAGAAACUGUGAAGUAUAUCUUAAACCUGGGCACUUAAAAGAUAUAUGGAGUUAGUAGUGCAACCUGCUCGGUCUGAUGAGUCCUUCUUUGGACGAAACAGC [UUCUUU]
Result string: 1.74

Query string: # lookup: normalized RNA/DNA level without ligand (log10) of GCUGUCACCGAGAAACUGUGAAGUAUAUCUUAAACCUGGGCACUUAAAAGAUAUAUGGAGUUAGUAGUGCAACCUGCUCGGUCUGAUGAGUCCUCGCUCGGACGAAACAGC [UCGCUC]
Result string: 1.74

Query string: Form field: reported normalized RNA/DNA level without ligand (log10) of GCUGUCACCGAGAAACUGUGAAGUAUAUCUUAAACCUGGGCACUUAAAAGAUAUAUGGAGUUAGUAGUGCAACCUGCUCGGUCUGAUGAGUCCGCUGUAGGACGAAACAGC [GCUGUA]
Result string: 1.6

Query string: // query normalized RNA/DNA level without ligand (log10) value for entry GCUGUCACCGAGAAACUGUGAAGUAUAUCUUAAACCUGGGCACUUAAAAGAUAUAUGGAGUUAGUAGUGCAACCUGCUCGGUCUGAUGAGUCCCGCCACGGACGAAACAGC [CGCCAC]
Result string: 1.69

Query string: Tell me the measured normalized RNA/DNA level without ligand (log10) of GCUGUCACCGAGAAACUGUGAAGUAUAUCUUAAACCUGGGCACUUAAAAGAUAUAUGGAGUUAGUAGUGCAACCUGCUCGGUCUGAUGAGUCCCGCUAGGGACGAAACAGC [CGCUAG] , please.
Result string: 1.75

// data source = the supplement of paper PMC6757056
